Catalogue of compounds with associated viability at 18 h, 50 µM
experiment: Cytotoxicity against mouse macrophage assessed as cell viability at 50 uM after 18 hrs by MTT assay; type: cell-based; settings: mouse macrophages, read-out: Activity
Hi! Could you send only the number? It should be in %, unit omitted.

Some compounds with recorded viability at 18 h, 50 µM:
COMPOUND | ENDPOINT VALUE
COc1cccc(C2O[C@@H](c3cc(C(F)(F)F)nc4c(C(F)(F)F)cccc34)[C@H]3CCCCN23)c1 (mixture of isomers) | 80
O=[N+]([O-])c1ccc(C2O[C@@H](c3cc(C(F)(F)F)nc4c(C(F)(F)F)cccc34)[C@H]3CCCCN23)cc1 (mixture of isomers) | 100
Oc1ccccc1C1O[C@@H](c2cc(C(F)(F)F)nc3c(C(F)(F)F)cccc23)[C@H]2CCCCN12 (mixture of isomers) | 85

Prompt: Tell me measured viability at 18 h, 50 µM for OC(c1cc(C(F)(F)F)nc2c(C(F)(F)F)cccc12)C1CCCCN1 (centres undefined) please.
Completion: 76

###

experiment: Cytotoxicity against mouse macrophage assessed as cell viability at 25 uM after 18 hrs by MTT assay; format: cell-based; settings: mouse macrophages, read-out: Activity
Catalogue of compounds with associated viability at 18 h, 25 µM
Hi! Could you send only the number? It should be in %, unit omitted.

Some compounds with recorded viability at 18 h, 25 µM:
COMPOUND | viability at 18 h, 25 µM (%)
O=[N+]([O-])c1ccccc1C1O[C@@H](c2cc(C(F)(F)F)nc3c(C(F)(F)F)cccc23)[C@H]2CCCCN12 (mixture of isomers) | 100
Fc1ccc(C2O[C@@H](c3cc(C(F)(F)F)nc4c(C(F)(F)F)cccc34)[C@H]3CCCCN23)cc1 (mixture of isomers) | 84
FC(F)(F)c1cc([C@@H]2OC(c3ccccc3Cl)N3CCCC[C@H]23)c2cccc(C(F)(F)F)c2n1 (mixture of isomers) | 100
Oc1ccccc1C1O[C@@H](c2cc(C(F)(F)F)nc3c(C(F)(F)F)cccc23)[C@H]2CCCCN12 (mixture of isomers) | 85
COc1ccccc1C1O[C@@H](c2cc(C(F)(F)F)nc3c(C(F)(F)F)cccc23)[C@H]2CCCCN12 (mixture of isomers) | 100
O=[N+]([O-])c1ccc(C2O[C@@H](c3cc(C(F)(F)F)nc4c(C(F)(F)F)cccc34)[C@H]3CCCCN23)cc1 (mixture of isomers) | 100

Prompt: Tell me measured viability at 18 h, 25 µM for COc1cccc(C2O[C@@H](c3cc(C(F)(F)F)nc4c(C(F)(F)F)cccc34)[C@H]3CCCCN23)c1 (mixture of isomers) please.
Completion: 80

Prompt: Tell me measured viability at 18 h, 25 µM for FC(F)(F)c1cc([C@H]2O[C@@H](c3ccccc3)N3CCCC[C@@H]23)c2cccc(C(F)(F)F)c2n1 please.
Completion: 96

###

Catalogue of compounds with associated viability at 18 h, 50 µM
assay: Cytotoxicity against mouse macrophage assessed as cell viability at 50 uM after 18 hrs by MTT assay; type: cell-based; details: mouse macrophages, read-out: Activity
Hi! Could you send only the number? It should be in %, unit omitted.

COMPOUND | viability at 18 h, 50 µM (%)
Fc1ccccc1C1O[C@@H](c2cc(C(F)(F)F)nc3c(C(F)(F)F)cccc23)[C@H]2CCCCN12 (mixture of isomers) | 100

Prompt: Tell me measured viability at 18 h, 50 µM for FC(F)(F)c1cc([C@@H]2OC(c3ccc(Cl)cc3)N3CCCC[C@H]23)c2cccc(C(F)(F)F)c2n1 (mixture of isomers) please.
Completion: 100

Prompt: Tell me measured viability at 18 h, 50 µM for O=[N+]([O-])c1ccccc1C1O[C@@H](c2cc(C(F)(F)F)nc3c(C(F)(F)F)cccc23)[C@H]2CCCCN12 (mixture of isomers) please.
Completion: 100

###

experiment: Cytotoxicity against mouse macrophage assessed as cell viability at 50 uM after 18 hrs by MTT assay; type: cell-based; conditions: mouse macrophages, read-out: Activity
Catalogue of compounds with associated viability at 18 h, 50 µM
Hi! Could you send only the number? It should be in %, unit omitted.

Some compounds with recorded viability at 18 h, 50 µM:
COMPOUND | UNITS TEXT | viability at 18 h, 50 µM
FC(F)(F)c1cc([C@@H]2OC(c3ccccc3Cl)N3CCCC[C@H]23)c2cccc(C(F)(F)F)c2n1 (mixture of isomers) | % | 100
O=[N+]([O-])c1cccc(C2O[C@@H](c3cc(C(F)(F)F)nc4c(C(F)(F)F)cccc34)[C@H]3CCCCN23)c1 (some centres not stated) | % | 100
Oc1ccc(C2O[C@@H](c3cc(C(F)(F)F)nc4c(C(F)(F)F)cccc34)[C@H]3CCCCN23)cc1 (mixture of isomers) | % | 80
COc1ccc(C2O[C@@H](c3cc(C(F)(F)F)nc4c(C(F)(F)F)cccc34)[C@H]3CCCCN23)cc1 (mixture of isomers) | % | 100
FC(F)(F)c1cc([C@@H]2OC(c3ccc(Br)cc3)N3CCCC[C@H]23)c2cccc(C(F)(F)F)c2n1 (mixture of isomers) | % | 100
FC(F)(F)c1cc([C@@H]2OC(c3cccc(Br)c3)N3CCCC[C@H]23)c2cccc(C(F)(F)F)c2n1 (mixture of isomers) | % | 85

// switching to the query compound
Prompt: Tell me measured viability at 18 h, 50 µM for FC(F)(F)c1cc([C@H]2O[C@@H](c3ccccc3)N3CCCC[C@@H]23)c2cccc(C(F)(F)F)c2n1 please.
Completion: 95

###

Catalogue of molecules with associated viability at 18 h, 12.5 µM
experiment: Cytotoxicity against mouse macrophage assessed as cell viability at 12.5 uM after 18 hrs by MTT assay; format: cell-based; details: mouse macrophages, read-out: Activity
# do not omit the unit; it follows the number

MOLECULE | ENDPOINT VALUE
FC(F)(F)c1cc([C@@H]2OC(c3ccccc3Cl)N3CCCC[C@H]23)c2cccc(C(F)(F)F)c2n1 (mixture of isomers) | 100%

Prompt: Tell me measured viability at 18 h, 12.5 µM for COc1ccc(C2O[C@@H](c3cc(C(F)(F)F)nc4c(C(F)(F)F)cccc34)[C@H]3CCCCN23)cc1 (mixture of isomers) please.
Completion: 100%

Prompt: Tell me measured viability at 18 h, 12.5 µM for COc1ccccc1C1O[C@@H](c2cc(C(F)(F)F)nc3c(C(F)(F)F)cccc23)[C@H]2CCCCN12 (mixture of isomers) please.
Completion: 100%

Prompt: Tell me measured viability at 18 h, 12.5 µM for FC(F)(F)c1cc([C@@H]2OC(c3cccc(Cl)c3)N3CCCC[C@H]23)c2cccc(C(F)(F)F)c2n1 (mixture of isomers) please.
Completion: 100%

Prompt: Tell me measured viability at 18 h, 12.5 µM for Fc1ccccc1C1O[C@@H](c2cc(C(F)(F)F)nc3c(C(F)(F)F)cccc23)[C@H]2CCCCN12 (mixture of isomers) please.
Completion: 100%

###

test: Cytotoxicity against mouse macrophage assessed as cell viability at 25 uM after 18 hrs by MTT assay; assay type: cell-based; conditions: mouse macrophages, read-out: Activity
MEASUREMENT KIND: viability at 18 h, 25 µM (%)
Hi! Could you send only the number? It should be in %, unit omitted.

Some molecules with recorded viability at 18 h, 25 µM:
MOLECULE | MEASUREMENT KIND | ENDPOINT VALUE
FC(F)(F)c1cc([C@@H]2OC(c3ccc(Cl)cc3)N3CCCC[C@H]23)c2cccc(C(F)(F)F)c2n1 (mixture of isomers) | viability at 18 h, 25 µM | 100
FC(F)(F)c1cc([C@@H]2OC(c3ccc(Br)cc3)N3CCCC[C@H]23)c2cccc(C(F)(F)F)c2n1 (mixture of isomers) | viability at 18 h, 25 µM | 100
FC(F)(F)c1cc([C@@H]2OC(c3cccc(Br)c3)N3CCCC[C@H]23)c2cccc(C(F)(F)F)c2n1 (mixture of isomers) | viability at 18 h, 25 µM | 85

Prompt: Tell me measured viability at 18 h, 25 µM for Fc1ccccc1C1O[C@@H](c2cc(C(F)(F)F)nc3c(C(F)(F)F)cccc23)[C@H]2CCCCN12 (mixture of isomers) please.
Completion: 100

Prompt: Tell me measured viability at 18 h, 25 µM for O=[N+]([O-])c1cccc(C2O[C@@H](c3cc(C(F)(F)F)nc4c(C(F)(F)F)cccc34)[C@H]3CCCCN23)c1 (some centres undefined) please.
Completion: 100

Prompt: Tell me measured viability at 18 h, 25 µM for COc1ccc(C2O[C@@H](c3cc(C(F)(F)F)nc4c(C(F)(F)F)cccc34)[C@H]3CCCCN23)cc1 (mixture of isomers) please.
Completion: 100

Prompt: Tell me measured viability at 18 h, 25 µM for OC(c1cc(C(F)(F)F)nc2c(C(F)(F)F)cccc12)C1CCCCN1 (centres undefined) please.
Completion: 77

Prompt: Tell me measured viability at 18 h, 25 µM for FC(F)(F)c1cc([C@@H]2OC(c3cccc(Cl)c3)N3CCCC[C@H]23)c2cccc(C(F)(F)F)c2n1 (mixture of isomers) please.
Completion: 100

Prompt: Tell me measured viability at 18 h, 25 µM for Oc1ccc(C2O[C@@H](c3cc(C(F)(F)F)nc4c(C(F)(F)F)cccc34)[C@H]3CCCCN23)cc1 (mixture of isomers) please.
Completion: 80
